Listed here are molecules together with their documented inhibition.
# targetSystem: Genome polyprotein (Dengue virus type 2 (strain 16681-PDK53))
# assay: flavivirus cap methylation enzyme inhibition – biochemical, confirmation dose response, primary screen (AID 588689)
# conditionNotes: Dengue-2 NS5 methyltransferase capping enzyme assay, at 25 µM, stronger effect = higher value
Out of some 340,000 compounds screened, about 1,000 (0.29%) were called active. Not all results are given here. Measured potencies and affinities stand elsewhere.
Response body: numeric value in %, unit text excluded.

Examples with their reported inhibition follow.
> print(dat)
                                   molecule  datavalue
1   Cc1[nH]n(-c2ccccc2)c(=O)c1-c1ccc(Cl)cc1      -1.62
2  Cc1[nH]n(-c2ccccc2)c(=O)c1C(C[N+](=O)[O-])c1ccc(Cl)cc1 (stereo not given)       4.51
3    CCn1cc(Br)c(C(=O)N2CCN(c3ccccc3)CC2)n1      -5.15
4  CSCCC(NC(=O)C1CC1)c1nc2ccccc2[nH]1 (stereo not given)      -5.48

Data request: Entry CSc1nnc2c(n1)OC1(Nc3ccccc3-2)C(=O)Nc2ccccc21 (stereo not given) : reported inhibition = ?
Data returned: 3.9

Data request: Entry CC(C)(C)c1ccc(C2(C)NC(=O)N(CC(=O)c3ccc[nH]3)C2=O)cc1 (stereo not given) : reported inhibition = ?
Data returned: -2.04

Data request: Entry CCO[C@H]1OC(C(=O)N2CCN(C)CC2)=C[C@@H](c2ccc(C(F)(F)F)cc2)[C@@H]1CCCO : reported inhibition = ?
Data returned: -3.14

Data request: Entry COc1ccc(C(c2c(C)[nH]n(C(N)=S)c2=O)C(C#N)C#N)cc1 (stereo not given) : reported inhibition = ?
Data returned: 28

Data request: Entry CC(NC(=O)C1CCC1)c1ccc(Cl)cc1 (stereo not given) : reported inhibition = ?
Data returned: -3.24

Data request: Entry Cc1cc(C)n(CC(=O)NC2CCCCC2C)c(=O)c1C#N (stereo not given) : reported inhibition = ?
Data returned: -0.74

Data request: Entry CCn1c(SCC(=O)NNC(=O)c2ccc(C)cc2)nnc1C(C)C : reported inhibition = ?
Data returned: 7.12

Data request: Entry CC1(C)OC(C)(C)/C(=C\c2ccccc2[N+](=O)[O-])C1=O : reported inhibition = ?
Data returned: -3.9

Data request: Entry O=C(O)/C=C\c1cc2c(cc1[N+](=O)[O-])OCO2 : reported inhibition = ?
Data returned: 4.71

Data request: Entry O=[N+]([O-])c1ccc(SCc2c(F)cccc2Cl)nc1 : reported inhibition = ?
Data returned: -6.18

Data request: Entry CC(=O)N(C)N(C)c1cc(C)nc(N)n1 : reported inhibition = ?
Data returned: 0.78

###

Listed here are molecules together with their documented inhibition.
# targetSystem: Genome polyprotein (Dengue virus type 2 (strain 16681-PDK53))
# assay: flavivirus cap methylation enzyme inhibition – biochemical, confirmation dose response, primary screen (AID 588689)
# conditionNotes: Dengue-2 NS5 methyltransferase capping enzyme assay, at 25 µM, stronger effect = higher value
Among all 340,000 compounds or so, about 1,000 (0.29%) were called active. Only a sample is shown. Results with a measured potency or affinity are listed apart.
Response body: numeric value in %, unit text excluded.

Data request: I'm curious: which inhibition was measured for Cc1nc2sc(C(c3ccco3)N3CCc4ccccc4C3)c(O)n2n1 (stereo unspecified) tested on Genome polyprotein (Dengue virus type 2 (strain 16681-PDK53))?
Data returned: -4.07

Data request: I'm curious: which inhibition was measured for Oc1ccc(Cl)cc1CNC1CCCCC1 tested on Genome polyprotein (Dengue virus type 2 (strain 16681-PDK53))?
Data returned: -11.2

Data request: I'm curious: which inhibition was measured for COc1ccc(S(N)(=O)=O)cc1C(=O)NNC(=O)c1cccc(S(=O)(=O)N2CCOCC2)c1 tested on Genome polyprotein (Dengue virus type 2 (strain 16681-PDK53))?
Data returned: 3.75

Data request: I'm curious: which inhibition was measured for O=C(NCCc1ccccc1)c1nc(CS(=O)(=O)c2ccc(Cl)cc2)no1 tested on Genome polyprotein (Dengue virus type 2 (strain 16681-PDK53))?
Data returned: -1.81

Data request: I'm curious: which inhibition was measured for Cc1cc(C)nc(N/N=C/c2ccccc2OCC(=O)O)n1 tested on Genome polyprotein (Dengue virus type 2 (strain 16681-PDK53))?
Data returned: 0

Data request: I'm curious: which inhibition was measured for CC(=O)N1CCc2c(sc(NC(=O)c3cccc(N4C(=O)CCC4=O)c3)c2C(N)=O)C1 tested on Genome polyprotein (Dengue virus type 2 (strain 16681-PDK53))?
Data returned: -10.4

Data request: I'm curious: which inhibition was measured for O=C(NCc1ccncc1)C(=O)NCC1OCCN1S(=O)(=O)c1ccc(F)cc1 (stereo unspecified) tested on Genome polyprotein (Dengue virus type 2 (strain 16681-PDK53))?
Data returned: -3.87

Data request: I'm curious: which inhibition was measured for N/C(=N\OC(=O)c1ccco1)c1ccc(Br)cc1 tested on Genome polyprotein (Dengue virus type 2 (strain 16681-PDK53))?
Data returned: -5.29

Data request: I'm curious: which inhibition was measured for CSc1nnc(C)c(=O)n1COC(=O)COc1ccc2ccccc2c1 tested on Genome polyprotein (Dengue virus type 2 (strain 16681-PDK53))?
Data returned: 3.64

Data request: I'm curious: which inhibition was measured for CCCN1Cc2cccc(C(=O)NCCc3cccc(C)c3)c2C1=O tested on Genome polyprotein (Dengue virus type 2 (strain 16681-PDK53))?
Data returned: 3.25

Data request: I'm curious: which inhibition was measured for CCOc1cc(/C=N\Nc2ccc([N+](=O)[O-])cc2)ccc1OCC(=O)Nc1ccc(C)c(C)c1 tested on Genome polyprotein (Dengue virus type 2 (strain 16681-PDK53))?
Data returned: 22

Data request: I'm curious: which inhibition was measured for COc1cccc(CNC(=O)c2cccc(NC(=O)C3=C(C)OCCS3)c2)c1 tested on Genome polyprotein (Dengue virus type 2 (strain 16681-PDK53))?
Data returned: -1.39

Data request: I'm curious: which inhibition was measured for COc1ccc2oc(C(=O)OCC(=O)N(C)C3CCS(=O)(=O)C3)c(C)c2c1 (stereo unspecified) tested on Genome polyprotein (Dengue virus type 2 (strain 16681-PDK53))?
Data returned: -8.65

Data request: I'm curious: which inhibition was measured for O=C(O)CC1CCC(=C(Cl)Cl)C1 (stereo unspecified) tested on Genome polyprotein (Dengue virus type 2 (strain 16681-PDK53))?
Data returned: 4.83

Data request: I'm curious: which inhibition was measured for CCN(CC)Cc1cc(C(C)=O)ccc1O tested on Genome polyprotein (Dengue virus type 2 (strain 16681-PDK53))?
Data returned: -1.36

Data request: I'm curious: which inhibition was measured for CC(C)(C)NC(=O)CN(C(=O)C1CSC(=O)C1)c1ccccc1F (stereo unspecified) tested on Genome polyprotein (Dengue virus type 2 (strain 16681-PDK53))?
Data returned: -7.12

###

# targetSystem: Genome polyprotein (Dengue virus type 2 (strain 16681-PDK53))
# assay: flavivirus cap methylation enzyme inhibition – biochemical, confirmation dose response, primary screen (AID 588689)
# conditionNotes: Dengue-2 NS5 methyltransferase capping enzyme assay, at 25 µM, stronger effect = higher value
The campaign covered roughly 340,000 compounds. About 1,000 (0.29%) were called active. The list is a sample of the results. Measured potencies and affinities stand elsewhere.
readoutLabel: inhibition (%)
Response body: numeric value in %, unit text excluded.

Data request: I'm curious: which inhibition was measured for Fc1cccc(/C=N/Nc2nccnc2Cl)c1 tested on Genome polyprotein (Dengue virus type 2 (strain 16681-PDK53))?
Data returned: -2.31

Data request: I'm curious: which inhibition was measured for O=C1OC(c2ccccc2)=N/C1=C/c1cccc(OC(=O)c2cccs2)c1 tested on Genome polyprotein (Dengue virus type 2 (strain 16681-PDK53))?
Data returned: 6.35

Data request: I'm curious: which inhibition was measured for O=C(O)c1ccc(N2C(=O)/C(=C/C=C/c3ccccc3)SC2=S)cc1 tested on Genome polyprotein (Dengue virus type 2 (strain 16681-PDK53))?
Data returned: 16

Data request: I'm curious: which inhibition was measured for CCC(c1ccc(O)cc1)C(CC)c1ccc(O)cc1 (stereo not given) tested on Genome polyprotein (Dengue virus type 2 (strain 16681-PDK53))?
Data returned: -4.4

Data request: I'm curious: which inhibition was measured for COc1ccccc1N=Nc1c(C)[nH]n(-c2ccccc2)c1=O tested on Genome polyprotein (Dengue virus type 2 (strain 16681-PDK53))?
Data returned: 1.98

Data request: I'm curious: which inhibition was measured for Cc1[nH]c2ccccc2c1-c1nc2ccccc2[nH]c1=O tested on Genome polyprotein (Dengue virus type 2 (strain 16681-PDK53))?
Data returned: -8.14

###

# targetSystem: Genome polyprotein (Dengue virus type 2 (strain 16681-PDK53))
# assay: flavivirus cap methylation enzyme inhibition – biochemical, confirmation dose response, primary screen (AID 588689)
# conditionNotes: Dengue-2 NS5 methyltransferase capping enzyme assay, at 25 µM, stronger effect = higher value
Out of some 340,000 compounds screened, about 1,000 (0.29%) were called active. A selection follows. Measured potencies and affinities stand elsewhere.
readoutLabel: inhibition

Examples with their reported inhibition follow.
> print(dat)
                                    compound          datavalue
 1  Cc1cnc(=O)[nH]c1SCc1ccc([N+](=O)[O-])cc1   9.19% (inactive)
 2  COC(=O)CCC(=O)OC1(C)C(=O)C=C2C=C(C3CC3)N(Cc3ccc(OC)cc3)C=C2C1=O (stereo not drawn)   17.3% (inactive)
 3                 O=C1C=C(O)c2cccc(O)c2C1=O   10.9% (inactive)
 4  CC1CCC(O)(C(C(=O)O)c2ccccc2)CC1 (stereo not drawn)  -8.55% (inactive)
 5  CC(C)(C)OC(=O)N1CCN(C(=O)c2[nH]cnc2C(=O)Nc2cccc(Cl)c2)CC1  -10.3% (inactive)
 6  COC(=O)CCC(=O)OC1(C)C(=O)C=C2C=C(C3CC3)N(CCCOC(C)C)C=C2C1=O (stereo not drawn)   7.22% (inactive)
 7  O=C(CN1C(=O)c2ccccc2C1=O)OCC(=O)c1ccc(F)cc1   5.07% (inactive)
 8        Cc1[nH]c2ccc(Br)cc2c(=S)c1C/C=C/Cl      0% (inactive)
 9  CCN(CC)CCCN1C=C2C(=O)C(C)(OC(=O)CCC(=O)OC)C(=O)C(Br)=C2C=C1c1ccc(OC)cc1 (stereo not drawn)    8.8% (inactive)
10  CC1CC(=O)c2cc(-c3ccccc3)oc2C1 (stereo not drawn)   5.14% (inactive)

Data request: Entry Cc1onc(-c2ccccc2Cl)c1C(=O)Nc1ccc(-c2nnc3n2CCCCC3)cc1 : reported inhibition = ?
Data returned: 9.09% (inactive)

Data request: Entry CC(C)C(=O)NNS(=O)(=O)c1ccccc1[N+](=O)[O-] : reported inhibition = ?
Data returned: -1.48% (inactive)

Data request: Entry COCCN(C(=O)CSc1nnc(-c2cccc(Cl)c2)n1N)c1c(N)n(CC(C)C)c(=O)[nH]c1=O : reported inhibition = ?
Data returned: -1.15% (inactive)

Data request: Entry O=C1c2ccccc2C(=O)N1c1ccccc1 : reported inhibition = ?
Data returned: -3.62% (inactive)

Data request: Entry CCOc1ccc(/C=C2/SC(=S)N(CCC(=O)Nc3ccc(C(=O)O)cc3)C2=O)cc1 : reported inhibition = ?
Data returned: -7.39% (inactive)

Data request: Entry COc1cc(C(=O)NCC(c2ccco2)N2CCOCC2)cc(OC)c1OC (stereo not drawn) : reported inhibition = ?
Data returned: -3.67% (inactive)

Data request: Entry COc1ccc(Nc2ccc(Cl)cc2)c(C(=O)O)c1 : reported inhibition = ?
Data returned: 9.44% (inactive)

Data request: Entry O=C(NCc1ccccc1)N1CCC(CO)(CCc2ccccc2)CC1 : reported inhibition = ?
Data returned: 5.32% (inactive)

Data request: Entry Cc1cc(C)n(-c2nc3ccccc3c(=O)n2OCC#N)n1 : reported inhibition = ?
Data returned: -1.94% (inactive)

Data request: Entry COC(=O)CCC(=O)OC1(C)C(=O)C=C2C=C(C3CC3)N(C3CCCCC3)C=C2C1=O (stereo not drawn) : reported inhibition = ?
Data returned: 12.7% (inactive)

This collection of values is drawn from PubChem BioAssay AID588689.
